Here, each record is paired with measured Corn plant response rating data.
# System: corn
# assay: Test B pre/postemergence corn
# Type: in vivo, Zea mays
# condition-summary: Preemergence, Rate 62 g/ha; scale 0 to 10 (0 no effect, 10 complete control)
parameter: Corn plant response rating

CCCn1c(=O)on(C(=O)N(c2ccccc2)C(C)C)c1=O: 0
COCCn1c(=O)on(C(=O)N(c2ccccc2)C(C)C)c1=O: 5
COc1ccccc1Cn1c(=O)on(C(=O)N(c2ccccc2)C(C)C)c1=O: 0
CC(C)N(C(=O)n1oc(=O)n(CC(=O)C(F)(F)F)c1=O)c1ccc(F)cc1F: 0
CC(C)N(C(=O)n1oc(=O)n(Cc2ccccc2)c1=O)c1ccc(F)cc1F: 0

* * *

Here, each record is paired with measured Barnyardgrass plant response rating data.
# System: bamyardgrass
# assay: Test B flood test barnyardgrass
# Format: in vivo, Echinochloa crus-galli
# condition-summary: flood test, listed under Postemergence, Rate 250 g/ha; scale 0 to 10, 0 no effect, 10 complete control
parameter: Barnyardgrass plant response rating

CC(C)N(C(=O)n1oc(=O)n(Cc2ccccc2)c1=O)c1ccc(F)cc1: 3
Cc1ccccc1-n1c(=O)on(C(=O)N(c2ccc(F)c(F)c2)C(C)C)c1=O: 0
CC(C)N(C(=O)n1oc(=O)n(-c2ccccc2C(F)(F)F)c1=O)c1ccc(F)cc1: 0
CCN(CC)C(=O)n1oc(=O)n(-c2c(C)cccc2C)c1=O: 0

* * *

Here, each record is paired with measured Plant response rating, Alexandergrass data.
# Tested on: Alexandergrass
# assay: Test D Alexandergrass
# Assay type: in vivo, Brachiaria plantaginea
# condition-summary: Rate 500 g/ha; Preemergence; 0 to 100 scale
parameter: Plant response rating, Alexandergrass

CC(C)N(C(=O)n1oc(=O)n(N(C)C)c1=O)c1ccc(F)cc1: 100
CC(C)N(C(=O)n1oc(=O)n(C)c1=O)c1ccc(F)cc1: 100
COc1ccccc1-n1c(=O)on(C(=O)N(c2ccc(F)cc2)C(C)C)c1=O: 90
CC(C)N(C(=O)n1oc(=O)n(C2CCCCC2)c1=O)c1ccccc1: 100

* * *

# Tested on: giant foxtail
# assay: Test B pre/postemergence giant foxtail
# Type: in vivo, Setaria faberii
# condition-summary: Rate 125 g/ha; Postemergence; scale 0 to 10, 0 no effect, 10 complete control
parameter: Giant foxtail plant response rating

COc1ccccc1-n1c(=O)on(C(=O)N(c2ccc(F)cc2)C(C)C)c1=O [Compound 30]: 2
CCN(CC)C(=O)n1oc(=O)n(-c2c(C)cccc2C)c1=O [Compound 2]: 0
Cc1cccc(C(C)C)c1-n1c(=O)on(C(=O)N(c2ccc(Cl)cc2)C(C)C)c1=O [Compound 64]: 0
CC(C)N(C(=O)n1oc(=O)n(-c2ccc(Cl)cc2Cl)c1=O)c1ccc(F)cc1 [Compound 7]: 0
Cc1cc(C)c(-n2c(=O)on(C(=O)N(c3ccc(Cl)cc3)C(C)C)c2=O)c(C)c1 [Compound 61]: 0

* * *

Here, each record is paired with measured Redroot pigweed plant response rating data.
# Tested on: pigweed
# assay: Test B pre/postemergence pigweed
# Assay type: in vivo, Amaranthus retroflexus
# condition-summary: Postemergence, Rate 250 g/ha; scale 0 to 10
parameter: Redroot pigweed plant response rating

CC(C)N(C(=O)n1oc(=O)n(CCS(C)(=O)=O)c1=O)c1ccc(F)cc1: 0
C=CC(CC)n1c(=O)on(C(=O)N(c2ccccc2)C(C)C)c1=O (stereo not shown): 5
CC(C)N(C(=O)n1oc(=O)n(CC(=O)N(C)C)c1=O)c1ccc(F)cc1F: 3
CC(C)N(C(=O)n1oc(=O)n(C(CF)CF)c1=O)c1ccc(Cl)cc1: 4

The reported numbers originate from patent US6737383B1.
